target: UniProtKB P15907
Sequence (P15907 whole entry): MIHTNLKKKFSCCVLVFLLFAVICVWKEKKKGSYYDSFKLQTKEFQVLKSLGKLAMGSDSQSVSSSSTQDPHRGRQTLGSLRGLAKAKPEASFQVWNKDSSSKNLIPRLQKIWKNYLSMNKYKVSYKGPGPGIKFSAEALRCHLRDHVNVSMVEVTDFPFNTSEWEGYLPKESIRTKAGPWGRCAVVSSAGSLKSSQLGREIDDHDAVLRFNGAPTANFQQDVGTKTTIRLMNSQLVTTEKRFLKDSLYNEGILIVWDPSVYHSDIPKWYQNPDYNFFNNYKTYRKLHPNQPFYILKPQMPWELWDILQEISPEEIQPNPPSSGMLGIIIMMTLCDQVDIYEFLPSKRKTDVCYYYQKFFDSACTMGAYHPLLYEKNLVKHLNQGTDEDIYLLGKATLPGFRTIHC
endpointName: IC50 (µM)
Please reply with the bare figure in µM and do not write the unit itself.

Looking up C[C@H](CCC(=O)OCCN=[N+]=[N-])[C@H]1CC[C@H]2[C@@H]3CC[C@@H]4C[C@H](OC(=O)[C@H](CC(=O)O)NC(=O)c5ccc([N+](=O)[O-])cc5)CC[C@]4(C)[C@H]3CC[C@]12C , I see its IC50 listed as 7.2

Looking up COc1ccc2c(CC(=O)N[C@@H](CC(=O)O)C(=O)O[C@@H]3CC[C@@]4(C)[C@H](CC[C@@H]5[C@@H]4CC[C@]4(C)[C@@H]([C@H](C)CCC(=O)OCCOCCOCCOCCOCCN=[N+]=[N-])CC[C@@H]54)C3)cc(=O)oc2c1 , I see its IC50 listed as 5.7

---

molecular target: Sialyltransferase ST3Gal-I (Rattus norvegicus) (UniProt Q6H8N0); experiment: Inhibition of rat alpha-2,3-O-ST3GALI assessed as reduction in sialylated-product formation at 1 mM using p-nitrophenyl T-antigen and CMP-NeuSAc incubated for 15 mins by reverse-phase HPLC analysis relative to control
Sequence (Q6H8N0 as listed by the source): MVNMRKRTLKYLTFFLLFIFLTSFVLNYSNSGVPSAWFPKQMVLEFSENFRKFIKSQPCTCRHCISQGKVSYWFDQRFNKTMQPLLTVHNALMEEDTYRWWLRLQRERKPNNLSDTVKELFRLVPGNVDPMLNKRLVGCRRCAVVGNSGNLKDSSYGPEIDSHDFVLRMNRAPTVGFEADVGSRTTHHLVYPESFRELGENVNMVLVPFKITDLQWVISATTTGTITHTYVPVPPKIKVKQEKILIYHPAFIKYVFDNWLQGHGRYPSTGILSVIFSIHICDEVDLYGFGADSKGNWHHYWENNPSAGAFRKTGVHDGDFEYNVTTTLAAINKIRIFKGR
Everything with inhibition lower than 60% is F; everything else, including exactly 60%, is T.

Evaluate C[C@@H]1O[C@@H](O[C@H]2[C@H](O[C@H]3[C@H](O[C@H]4CC[C@@]5(C)[C@@H](CC[C@]6(C)[C@@H]5CC=C5[C@@H]7CC(C)(C)C[C@@H](O)[C@]7(C)CC[C@]56C)[C@@]4(C)CO)O[C@H](C(=O)O)[C@@H](O)[C@@H]3O)O[C@H](CO)[C@H](O)[C@@H]2O)[C@H](O)[C@H](O)[C@H]1O : inhibition at minimum 60%? T

Evaluate C[C@H](CCC(=O)NCC(=O)O)[C@H]1CC[C@H]2[C@@H]3CC[C@@H]4C[C@H](O)CC[C@]4(C)[C@H]3CC[C@]12C : inhibition at minimum 60%? F

Evaluate C[C@H](CCC(=O)OCCOCCOCCOCCN=[N+]=[N-])[C@H]1CC[C@H]2[C@@H]3CC[C@@H]4C[C@H](OC(=O)[C@H](CC(=O)O)Nc5ccc([N+](=O)[O-])c6nonc56)CC[C@]4(C)[C@H]3CC[C@]12C : inhibition at minimum 60%? F

Evaluate C[C@H](CCC(=O)OCCOCCN=[N+]=[N-])[C@H]1CC[C@H]2[C@@H]3CC[C@@H]4C[C@H](OC(=O)[C@H](CC(=O)O)Nc5ccc([N+](=O)[O-])c6nonc56)CC[C@]4(C)[C@H]3CC[C@]12C : inhibition at minimum 60%? T

---

target: Sialyltransferase ST3Gal-I (Rattus norvegicus) (UniProt Q6H8N0); assay: Inhibition of rat alpha-2,3-O-ST3GALI assessed as reduction in sialylated-product formation at 500 uM using p-nitrophenyl T-antigen and CMP-NeuSAc incubated for 15 mins by reverse-phase HPLC analysis relative to control
endpointName: inhibition (%)
Please reply with the bare figure in % and do not write the unit itself.

Looking up C[C@H](CCC(=O)OCCN=[N+]=[N-])[C@H]1CC[C@H]2[C@@H]3CC[C@@H]4C[C@H](OC(=O)[C@H](CC(=O)O)Nc5ccc([N+](=O)[O-])c6nonc56)CC[C@]4(C)[C@H]3CC[C@]12C , I see its inhibition listed as 0

Looking up C[C@H](CCC(=O)OCCOCCOCCOCCOCCN=[N+]=[N-])[C@H]1CC[C@H]2[C@@H]3CC[C@@H]4C[C@H](OC(=O)[C@H](CC(=O)O)Nc5ccc([N+](=O)[O-])c6nonc56)CC[C@]4(C)[C@H]3CC[C@]12C , I see its inhibition listed as 0

Cited source for all entries: ChEMBL document CHEMBL4765481
